assayed_system: Rap guanine nucleotide exchange factor 3 (Homo sapiens) (UniProt O95398)
Sequence (O95398 whole entry, looked up): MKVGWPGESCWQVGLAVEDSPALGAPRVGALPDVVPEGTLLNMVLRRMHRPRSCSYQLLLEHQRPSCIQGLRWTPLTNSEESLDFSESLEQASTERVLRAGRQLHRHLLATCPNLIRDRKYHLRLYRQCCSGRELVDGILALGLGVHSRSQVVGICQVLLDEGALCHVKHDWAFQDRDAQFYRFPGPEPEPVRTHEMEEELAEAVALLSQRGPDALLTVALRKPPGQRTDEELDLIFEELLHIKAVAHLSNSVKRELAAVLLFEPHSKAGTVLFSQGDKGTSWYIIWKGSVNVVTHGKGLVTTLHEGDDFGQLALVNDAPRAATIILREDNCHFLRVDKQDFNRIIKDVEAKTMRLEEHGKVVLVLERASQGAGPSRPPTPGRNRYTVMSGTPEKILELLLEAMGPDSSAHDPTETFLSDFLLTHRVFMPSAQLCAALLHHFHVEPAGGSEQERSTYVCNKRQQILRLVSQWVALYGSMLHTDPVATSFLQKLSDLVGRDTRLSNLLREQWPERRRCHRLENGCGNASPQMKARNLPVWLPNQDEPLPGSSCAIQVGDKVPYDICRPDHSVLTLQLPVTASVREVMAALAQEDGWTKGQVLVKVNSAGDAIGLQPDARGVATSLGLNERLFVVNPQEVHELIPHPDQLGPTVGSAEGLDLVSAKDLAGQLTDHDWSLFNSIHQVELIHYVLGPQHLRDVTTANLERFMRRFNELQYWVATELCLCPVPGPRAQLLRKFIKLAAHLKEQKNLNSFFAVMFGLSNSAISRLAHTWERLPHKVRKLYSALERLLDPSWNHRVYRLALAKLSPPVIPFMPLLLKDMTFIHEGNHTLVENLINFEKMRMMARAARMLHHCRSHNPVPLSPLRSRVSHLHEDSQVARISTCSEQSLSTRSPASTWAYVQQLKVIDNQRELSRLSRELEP
assay_overview: Validation qHTS for antagonist of cAMP-regulated guanine nucleotide exchange factor 3 (EPAC1); also: nearly all actives have a fitted effect of over 75% in size
condition_label: EPAC1 Rap1B-BODIPY-GDP exchange, fluorescence; series mostly up to 150 µM
About 120 (0.75%) of roughly 16,000 compounds were called active. Another 4% or so got no clear call; they are omitted. Calls follow the shape of the dose curve; as a rule, active = well fitted inhibition curve with a large enough effect; inconclusive = small, poorly fitted or top-dose-only effect; inactive = no such curve, though single readings can be large or run the other way. The full list was thinned out, with actives kept by preference.
Outcome codes: class 1 for active, class 0 for inactive

compound	class_name
Cc1ccc2c(/C=C/c3ccc(N(C)C)cc3)ccnc2c1C	class 0
Cc1cc(=O)oc2c(O)c(O)ccc12	class 0
Nc1ncnc2c1nc(Br)n2[C@H]1O[C@H]2COP(=O)(O)O[C@H]2[C@@H]1O	class 1
Nc1ncnc2c1nc(Br)n2[C@@H]1O[C@H]2COP(=O)(O)O[C@@H]2[C@@H]1O	class 1
CC1(C)S[C@@H]2[C@H](NC(=O)C(N)c3ccccc3)C(=O)N2[C@H]1C(=O)OC1OC(=O)c2ccccc21 (stereo not given in full)	class 0
